- tgt: T1, PUF4 RNA-binding domain (Saccharomyces cerevisiae, UniProt P25339 537-888)
- T1 sequence: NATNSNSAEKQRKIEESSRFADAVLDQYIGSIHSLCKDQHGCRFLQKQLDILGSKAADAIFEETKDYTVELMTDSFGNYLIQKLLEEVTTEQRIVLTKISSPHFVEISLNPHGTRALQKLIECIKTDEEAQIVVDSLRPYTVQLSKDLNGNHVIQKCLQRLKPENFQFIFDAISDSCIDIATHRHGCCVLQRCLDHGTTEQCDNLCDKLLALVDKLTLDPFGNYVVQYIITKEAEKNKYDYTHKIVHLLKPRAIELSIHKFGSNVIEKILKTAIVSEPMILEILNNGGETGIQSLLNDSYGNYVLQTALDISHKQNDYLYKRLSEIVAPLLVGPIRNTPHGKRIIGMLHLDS
- test method notes: Mg; RNA-MaP; 20 mM Na-HEPES pH 7.4, 30 mM KOAc, 0.75 mM MgCl2, 0.1% Tween-20, 5% glycerol, 0.1 mg/mL BSA, 2 mM DTT; 25 C; 0.0125-409.6 nM protein
- condition info: tags: N-His6-TEV cleaved; C-SNAP kept, Cy3B-labelled; label: tethered on chip by stalled RNA polymerase
# pKd per record follows
Answer as the number alone; pKd is minus log10 of concentration in mol/L.

Solved cases below.
UCUCUUUGUCCCAUUAUUAUCUCUU (ssRNA) [Ie_S1_P5E.1_K5.1_C5.1_H5.1_[+3CCC]_A5.1_F5.1_T5.1] ... 7.18
UCUCUUUGCAUAUUGUCUCUU (ssRNA) [Ib_S1_P4E.1_K4.1_C4.1_H4.1_[T3C]_A4.1_F4.1_[A9G]_T4.1] ... 5.74
UCUCUUUGUAUAUAUUAAUUCUCUU (ssRNA) [Id_ii_S1_P4E.3_K4.2_C4.2_[C-2T]_[T-1G]_H4.2_A4.1_F4.1_T4.2_[G10A]] ... 8.32
UCUCUUUGUACUUUUCUCUU (ssRNA) [Ic_S1_P3E.1_K3.1_C3.1_H3.1_A3.1_[T5C]_[A6T]_F3.1_[A8T]_T3.1] ... 7.71
UCUCUUUGCCUUAUAUUAUCUCUU (ssRNA) [Ie_S1_P4E.1_K4.1_C4.1_H4.1_[+2CCT]_A4.1_F4.1_T4.1] ... 5.88

# pKd (binder: UCUCUUUGUAUUAUUUCCUAUCUCUU (ssRNA) [Ie_S1_P5E.1_K5.1_C5.1_H5.1_A5.1_F5.1_[+8TTCC]_T5.1] ) is 7.82

# pKd (binder: Ib_S2_P4E.1_K4.1_C4.1_H4.1_[T1C]_A4.1_F4.1_[T8A]_T4.1 (ssRNA) RNA: UUUGAUUAAUAUGAUAUCGUUCUUUCUCGUAUAUAAUUCUUUCUCGAUAUCAUAUUAAUCUUU ) is 6.35

# pKd (binder: UCUCUUUCUGUAUAUAAAUCUCUU (ssRNA) [Id_ii_S1_P3E.2_K3.1_C3.2_[C-2T]_[T-1C]_H3.1_A3.1_F3.1_T3.2_[T9A]] ) is 8.07

# pKd (binder: Id_ii_S4_P4E.2_K4.1_C4.2_H4.1_A4.1_F4.1_T4.2_[G10A]_[T11A] (ssRNA) RNA: UUUGACAACUGAUCGUUCUUUCUCUUGUAUAUUAAAUUCUUUCUCGAUCAGUUGUCUUU ) is 9.37
